# Test system: Escherichia coli
# procedure text: Antibacterial activity against Escherichia coli ATCC 10536 assessed as growth inhibition by broth dilution method
# Type: functional
Entries and their MIC
Number only, in µg/mL; omit the unit.

Some compounds with recorded MIC:
compound string	study target	unit annotation	MIC
Cc1cc(C)n2nc(N3CCCCC3)c(C#N)c2n1	Escherichia coli	µg/mL	16000
Cc1ccc(C)n1-c1[nH]nc(N2CCCCC2)c1C#N	Escherichia coli	µg/mL	8000
N#Cc1c(N2CCCC2)n[nH]c1N	Escherichia coli	µg/mL	8000
N#Cc1c(N2CCCCC2)n[nH]c1N	Escherichia coli	µg/mL	4000
CC(=O)n1nc(N2CCCCC2)c(C#N)c1N	Escherichia coli	µg/mL	16000
CSc1c(C#N)c(N)nc2c(C#N)c(N3CCCCC3)nn12	Escherichia coli	µg/mL	16000
N#Cc1nnc2c(C#N)c(N3CCCCC3)nn2c1N	Escherichia coli	µg/mL	16000
Cc1ccc(C)n1-c1[nH]nc(N2CCOCC2)c1C#N	Escherichia coli	µg/mL	4000

Lookup: Please report the recorded MIC for `CC(=O)n1nc(N2CCCC2)c(C#N)c1N` .
Found: 8000

====

# System: Staphylococcus aureus
# procedure text: Antibacterial activity against Staphylococcus aureus ATCC 25923 assessed as growth inhibition at 1 mg/ml after 24 hrs by agar diffusion method
# Format: functional
# run parameters: ATCC 25923, 24 h, read-out: DIZ
Mark -1 for zone of inhibition at 1000 µg/mL values under 10 mm, and 1 for everything at or above.

A selection of reference data follows.
compound string	classification
Cc1cc(O)n2nc(N3CCOCC3)c(C#N)c2n1	-1
Cc1cc(C)n2nc(N3CCCCC3)c(C#N)c2n1	1
Cc1ccc(C)n1-c1[nH]nc(N2CCCCC2)c1C#N	1
CSc1c(C#N)c(N)nc2c(C#N)c(N3CCCCC3)nn12	1
N#Cc1c(N2CCOCC2)n[nH]c1N	1

Lookup: Dear colleague, could you confirm whether `CC(=O)n1nc(N2CCCC2)c(C#N)c1N` has zone of inhibition at 1000 µg/mL at or above 10 mm?
Found: 1

Lookup: Exam item: decide whether the reported zone of inhibition at 1000 µg/mL for `N#Cc1c(N2CCCCC2)n[nH]c1N` is at least 10 mm.
Found: 1

====

# System: Enterococcus faecalis
# procedure text: Antibacterial activity against Enterococcus faecalis ATCC 14506 assessed as growth inhibition at 1 mg/ml after 24 hrs by agar diffusion method
# Assay type: functional, organism-based
Activity calls are given as the source filed them. No cut-off for these calls is given here.

compound string	growth inhibition (GI)
CC(=O)n1nc(N2CCCC2)c(C#N)c1N	inactive
N#Cc1c(N)nc2c(C#N)c(N3CCOCC3)nn2c1N1CCCCC1	inactive
CC(=O)c1nnc2c(C#N)c(N3CCOCC3)nn2c1C	inactive

====

# MIC annotations
# System: Staphylococcus aureus
# procedure text: Antibacterial activity against Staphylococcus aureus ATCC 25923 assessed as growth inhibition by broth dilution method
# Assay type: functional
Write down the numeric answer in mg/mL and omit the unit.

Example entries and their recorded answers appear below.
compound string	unit annotation	MIC
CC(=O)c1nnc2c(C#N)c(N3CCCCC3)nn2c1C	mg/mL	16
CC(=O)n1nc(N2CCCCC2)c(C#N)c1N	mg/mL	16
Cc1ccc(C)n1-c1[nH]nc(N2CCOCC2)c1C#N	mg/mL	2

Lookup: Reported MIC for Staphylococcus aureus, given `CC(=O)n1nc(N2CCCC2)c(C#N)c1N` ?
Found: 16

Lookup: Lab note: need MIC for `N#Cc1c(N2CCCC2)n[nH]c1N` on Staphylococcus aureus, anyone have it?
Found: 16

Lookup: Find MIC (Staphylococcus aureus) for the entry `N#Cc1c(N2CCCCC2)n[nH]c1N`
Found: 16

meta.source: ChEMBL document CHEMBL2390874
